Below: a set of entries, each annotated with reported self-cleavage.
B1: LINE1-full (parent)
chain: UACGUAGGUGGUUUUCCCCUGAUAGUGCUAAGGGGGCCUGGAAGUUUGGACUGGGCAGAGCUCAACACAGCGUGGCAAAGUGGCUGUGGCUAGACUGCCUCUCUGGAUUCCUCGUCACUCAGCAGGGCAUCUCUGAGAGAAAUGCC

Variants of: B1
Test: self-cleavage, relative activity (ratio to wild type); higher = more cleavage; in vitro, sequencing; the parent is a self-cleaving ribozyme
Reply with the value as a number alone.

{"ordered residues": "UACGUAGGUGGUUUUCCCCUGAUAGUGCUAAGGGGGCCUGGAAGUUUGGACUGGGCAGAGCUCAACACAGCGUGGCUAAGUGGCUGUGGCUAGACUGCCUCUCUGGAUUCCUCGUCACUCAGCAGGACAUCUCUGAGAGAAAUGCC [A77U G127A]", "self-cleavage": 1.48}
{"ordered residues": "UACGUAGGUGGUUUUCCCCUGAAAGUGCUAAGGGGGCCUGGAAGUUUGGACAGGGCAGAGCUCAACACAGCGUGGCAAAGUGGCUGUGGCUAGACUGCCUCUCUGGAUUCCUCGUCACUCAGCAGGGCAUCUCUGAGAGAAAUGCC [U23A U52A]", "self-cleavage": 1.37}
{"ordered residues": "UGCGUAGGUGGUUUUCCCCUGAUAGAGCUAAGGGGGCCUGGAAGUUUGGACUGGGCAGAGCUCAACACAGCGUGGCAAAGUGGCUGUGGCUAGACUGCCUCUCUGGAUUCCUCGUCACUCAGCAGGGCAUCUCUGAGAGAAAUGCC [A2G U26A]", "self-cleavage": 0.84}

Prompt: Find the measured self-cleavage of UACGUAGGUGGUUUUCCCCUGAUAGUGCUAAGGGGGCCUGGAAGUUUGGACUGGGCUGAACUCAACACAGCGUGGCAAAGUGGCUGUGGCUAGACUGCCUCUCUGGAUUCCUCGUCACUCAGCAGGGCAUCUCUGAGAGAAAUGCC [A57U G60A] and report it.
Completion: 0.04

Prompt: Find the measured self-cleavage of UACGUAGGUGGUUUUCCCCUGAUAGUGCUAAGGGGGCCGGGAAGUUUGGACUGGGCAGAGCUCAACACAGCGUGGCAAAGUGGCUGUGGCUAGACUGCCUCUCUGGAUUCCUCGUCACUCAGCAGGGCUUCUCUGAGAGAAAUGCC [U39G A129U] and report it.
Completion: 1.44

Prompt: Find the measured self-cleavage of UACGUAGGUGGUUUUCCCCUGAUAGUGCUAAGGCGGCCUGGAAGUUUGGACUGGGCAGAGCUCAACACAGCGUGGCUAAGUGGCUGUGGCUAGACUGCCUCUCUGGAUUCCUCGUCACUCAGCAGGGCAUCUCUGAGAGAAAUGCC [G34C A77U] and report it.
Completion: 1.18

Prompt: Find the measured self-cleavage of UACGUAGGUGGUUUUCCCCUGAUAGUGCUAAGGGGGCCUGGAAGUUUGGACUGGGCAGAGUUCAACACAGCGUGGCUAAGUGGCUGUGGCUAGACUGCCUCUCUGGAUUCCUCGUCACUCAGCAGGGCAUCUCUGAGAGAAAUGCC [C61U A77U] and report it.
Completion: 0.03

Prompt: Find the measured self-cleavage of UACGUAGGUGGUUUUCCCCUGAUAGUGCUAAGGGGGCCUGGAAGUUUGGACUGGGCAGAGCUCAACACAGCGUGGCAAAGUGGCAGUGGCUUGACUGCCUCUCUGGAUUCCUCGUCACUCAGCAGGGCAUCUCUGAGAGAAAUGCC [U85A A92U] and report it.
Completion: 0.11

Prompt: Find the measured self-cleavage of UACGUAGGUGGUUUUCCCCUGAUAGUGCUAAGGGGGCCUGGAAGUUUGGACUGGGCAGAGCUCAACACAGCUUGGCAAAGUGGCUGUGGCUAGACUGCCUCUCUGGAUUCCUCGUCACUCAGCAGGGCAUCUCUGAGAGAAAUGCC [G72U] and report it.
Completion: 0.9

Prompt: Find the measured self-cleavage of UACGUAGGUGGUUUUCCCCUGAUAGUGAUAAGGGGGCCUGGGAGUUUGGACUGGGCAGAGCUCAACACAGCGUGGCAAAGUGGCUGUGGCUAGACUGCCUCUCUGGAUUCCUCGUCACUCAGCAGGGCAUCUCUGAGAGAAAUGCC [C28A A42G] and report it.
Completion: 0.82

Prompt: Find the measured self-cleavage of UACGUAGGUGGUUUUCCCCUGAUAGUGCCAAGGGGGCCUGGAAGUUUGGACUGGGCAGAGCUCAACACAGCGUGGCAAAGUGGCUGUGGCUAGACUGCCUCUCUGGAUUCCUCGUCUCUCAGCAGGGCAUCUCUGAGAGAAAUGCC [U29C A117U] and report it.
Completion: 1.51
